Biological target: Fluc-Bpe (Bordetella pertussis, UniProt Q7VYU0, R29K/S83C)
Sequence (Q7VYU0 whole entry R29K/S83C): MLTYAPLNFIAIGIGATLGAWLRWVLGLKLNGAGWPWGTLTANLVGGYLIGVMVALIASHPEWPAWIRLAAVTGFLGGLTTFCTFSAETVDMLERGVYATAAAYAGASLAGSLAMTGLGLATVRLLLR
Experiment: biochemical
QUANTITY_NAME: Ki (mM)
Quick note: give the figure in mM, leave out the unit.

# input compound: N#CO ; wanted: its Ki
7.9
